Target: purified human topoisomerase I (Homo sapiens, UniProt P11387)
Sequence (P11387 1-765): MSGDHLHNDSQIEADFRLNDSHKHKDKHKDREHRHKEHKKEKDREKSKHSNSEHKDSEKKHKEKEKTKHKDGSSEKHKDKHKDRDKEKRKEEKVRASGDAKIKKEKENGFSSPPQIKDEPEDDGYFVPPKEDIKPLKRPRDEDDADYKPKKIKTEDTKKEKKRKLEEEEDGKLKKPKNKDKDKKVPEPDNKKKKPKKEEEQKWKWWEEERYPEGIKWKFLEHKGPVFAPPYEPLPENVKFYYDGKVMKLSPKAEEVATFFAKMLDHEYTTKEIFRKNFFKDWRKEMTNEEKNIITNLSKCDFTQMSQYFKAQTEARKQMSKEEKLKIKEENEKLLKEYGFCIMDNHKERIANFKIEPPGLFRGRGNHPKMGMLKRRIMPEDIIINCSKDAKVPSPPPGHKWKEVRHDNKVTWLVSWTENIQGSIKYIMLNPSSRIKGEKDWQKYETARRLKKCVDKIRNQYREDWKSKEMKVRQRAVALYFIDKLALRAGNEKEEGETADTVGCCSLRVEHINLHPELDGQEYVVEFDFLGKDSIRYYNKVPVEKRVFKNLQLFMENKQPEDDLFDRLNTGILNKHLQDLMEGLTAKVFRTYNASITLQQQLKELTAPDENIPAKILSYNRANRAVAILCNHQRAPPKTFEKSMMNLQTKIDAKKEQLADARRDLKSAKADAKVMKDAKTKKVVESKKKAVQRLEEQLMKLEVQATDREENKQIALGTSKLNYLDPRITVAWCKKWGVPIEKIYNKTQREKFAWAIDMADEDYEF
Assay: Topoisomerase I activity (in vitro): compound-induced, topoisomerase I-mediated single strand breaks in PM2 DNA
Settings: 30 minutes at 37° C., agarose gel densitometry, read-out: EC50 (median effective concentration for inducing topoisomerase I-mediated single strand breaks in DNA)

{"columns": ["COMPOUND", "VALUE_OPERATOR", "EC50 (nM)"],
 "data": [
  ["O=C1NC(=O)c2c1c1c3cc(F)c(F)cc3n3c1c1c2c2cc(F)c(F)cc2n1C1OC(C3)C(O)C(F)C1O (stereo not shown)", ">", 100000],
  ["COC1C2Cn3c4c(Cl)cccc4c4c5c(c6c7cccc(Cl)c7n(c6c43)C(O2)C(O)C1O)C(=O)NC5=O (stereo not shown)", ">", 100000],
  ["O=C1NC(=O)c2c1c1c3cc(F)c(F)cc3n3c1c1c2c2cc(F)c(F)cc2n1C1OC(CC(O)C1O)C3 (stereo not shown)", "=", 5600],
  ["O=C1NC(=O)c2c1c1c3cc(F)ccc3n3c1c1c2c2cc(F)ccc2n1[C@@H]1O[C@H](CO)[C@H](O)[C@H](O)[C@@H]13", "=", 110],
  ["O=C1NC(=O)c2c1c1c3ccc(F)cc3n3c1c1c2c2ccc(F)cc2n1C1OC(C3)C(F)C(O)C1O (stereo not shown)", "=", 3300],
  ["O=C1NC(=O)c2c1c1c3cc(F)ccc3n3c1c1c2c2cc(F)ccc2n1[C@@H]1O[C@H](CO)[C@@H](O)[C@H](O)[C@@H]13", "=", 120],
  ["O=C1NC(=O)c2c1c1c3ccc(F)cc3n3c1c1c2c2ccc(F)cc2n1C1OC(C3)C(O)C(O)C1O (stereo not shown)", "=", 450]
]}

* * *

target: UniProtKB P11387; experiment: Topoisomerase I activity (in vitro): compound-induced, topoisomerase I-mediated single strand breaks in PM2 DNA; settings: 30 minutes at 37° C., agarose gel densitometry, read-out: EC50 (median effective concentration for inducing topoisomerase I-mediated single strand breaks in DNA)
pEC50: −log10 of the molar value.
Reported pEC50 by item:

{"columns": ["MOLECULE", "MEASUREMENT_TARGET", "VALUE_OPERATOR", "pEC50"],
 "data": [
  ["O=C1NC(=O)c2c1c1c3cc(F)c(F)cc3n3c1c1c2c2cc(F)c(F)cc2n1C1OC(C3)C(F)(F)C(O)C1O (centres unmarked)", "UniProtKB P11387", "<", 4.00],
  ["C[C@]12O[C@H]([C@H](O)[C@@H](O)[C@@H]1O)n1c3cc(F)c(F)cc3c3c4c(c5c6cc(F)c(F)cc6n2c5c31)C(=O)NC4=O", "UniProtKB P11387", "=", 6.54],
  ["O=C1NC(=O)c2c1c1c3ccc(F)cc3n3c1c1c2c2ccc(F)cc2n1[C@@H]1O[C@H](CO)[C@@H](O)[C@H](O)[C@@H]13", "UniProtKB P11387", "<", 4.00],
  ["O=C1NC(=O)c2c1c1c3cc(F)c(F)cc3n3c1c1c2c2cc(F)c(F)cc2n1[C@@H]1OC(CF)[C@H]3C(O)C1O (some centres unmarked)", "UniProtKB P11387", "=", 5.54],
  ["O=C1NC(=O)c2c1c1c3cc(F)c(F)cc3n3c1c1c2c2cc(F)c(F)cc2n1C1OC(C3)C(O)C(O)C1O (centres unmarked)", "UniProtKB P11387", "=", 6.46],
  ["O=C1NC(=O)c2c1c1c3cc(F)c(F)cc3n3c1c1c2c2cc(F)c(F)cc2n1[C@@]1(CO)O[C@@H]3[C@H](O)[C@@H](O)[C@@H]1O", "UniProtKB P11387", "=", 6.49],
  ["O=C1NC(=O)c2c1c1c3cc(F)ccc3n3c1c1c2c2cc(F)ccc2n1C1OC(C3)C(F)C(O)C1O (centres unmarked)", "UniProtKB P11387", "=", 7.55],
  ["O=C1NC(=O)c2c1c1c3cc(F)c(F)cc3n3c1c1c2c2cc(F)c(F)cc2n1C1OC(C3)C(F)C(O)C1O (centres unmarked)", "UniProtKB P11387", "=", 6.21],
  ["O=C1NC(=O)c2c1c1c3cc(F)ccc3n3c1c1c2c2cc(F)ccc2n1C1OC(C3)C(O)C(O)C1O (centres unmarked)", "UniProtKB P11387", "=", 7.44],
  ["O=C1NC(=O)c2c1c1c3cc(F)c(F)cc3n3c1c1c2c2cc(F)c(F)cc2n1C1OC(C3)C(O)CC1O (centres unmarked)", "UniProtKB P11387", "=", 6.17],
  ["O=C1NC(=O)c2c1c1c3cc(F)c(F)cc3n3c1c1c2c2cc(F)c(F)cc2n1[C@@H]1OC(CO)[C@H]3C(O)C1O (some centres unmarked)", "UniProtKB P11387", "=", 5.09]
]}
